Molecular target: human Nav1.8 channels (Homo sapiens)
Construct: expressed in transfected cells
Sequence (Q9Y5Y9 whole entry): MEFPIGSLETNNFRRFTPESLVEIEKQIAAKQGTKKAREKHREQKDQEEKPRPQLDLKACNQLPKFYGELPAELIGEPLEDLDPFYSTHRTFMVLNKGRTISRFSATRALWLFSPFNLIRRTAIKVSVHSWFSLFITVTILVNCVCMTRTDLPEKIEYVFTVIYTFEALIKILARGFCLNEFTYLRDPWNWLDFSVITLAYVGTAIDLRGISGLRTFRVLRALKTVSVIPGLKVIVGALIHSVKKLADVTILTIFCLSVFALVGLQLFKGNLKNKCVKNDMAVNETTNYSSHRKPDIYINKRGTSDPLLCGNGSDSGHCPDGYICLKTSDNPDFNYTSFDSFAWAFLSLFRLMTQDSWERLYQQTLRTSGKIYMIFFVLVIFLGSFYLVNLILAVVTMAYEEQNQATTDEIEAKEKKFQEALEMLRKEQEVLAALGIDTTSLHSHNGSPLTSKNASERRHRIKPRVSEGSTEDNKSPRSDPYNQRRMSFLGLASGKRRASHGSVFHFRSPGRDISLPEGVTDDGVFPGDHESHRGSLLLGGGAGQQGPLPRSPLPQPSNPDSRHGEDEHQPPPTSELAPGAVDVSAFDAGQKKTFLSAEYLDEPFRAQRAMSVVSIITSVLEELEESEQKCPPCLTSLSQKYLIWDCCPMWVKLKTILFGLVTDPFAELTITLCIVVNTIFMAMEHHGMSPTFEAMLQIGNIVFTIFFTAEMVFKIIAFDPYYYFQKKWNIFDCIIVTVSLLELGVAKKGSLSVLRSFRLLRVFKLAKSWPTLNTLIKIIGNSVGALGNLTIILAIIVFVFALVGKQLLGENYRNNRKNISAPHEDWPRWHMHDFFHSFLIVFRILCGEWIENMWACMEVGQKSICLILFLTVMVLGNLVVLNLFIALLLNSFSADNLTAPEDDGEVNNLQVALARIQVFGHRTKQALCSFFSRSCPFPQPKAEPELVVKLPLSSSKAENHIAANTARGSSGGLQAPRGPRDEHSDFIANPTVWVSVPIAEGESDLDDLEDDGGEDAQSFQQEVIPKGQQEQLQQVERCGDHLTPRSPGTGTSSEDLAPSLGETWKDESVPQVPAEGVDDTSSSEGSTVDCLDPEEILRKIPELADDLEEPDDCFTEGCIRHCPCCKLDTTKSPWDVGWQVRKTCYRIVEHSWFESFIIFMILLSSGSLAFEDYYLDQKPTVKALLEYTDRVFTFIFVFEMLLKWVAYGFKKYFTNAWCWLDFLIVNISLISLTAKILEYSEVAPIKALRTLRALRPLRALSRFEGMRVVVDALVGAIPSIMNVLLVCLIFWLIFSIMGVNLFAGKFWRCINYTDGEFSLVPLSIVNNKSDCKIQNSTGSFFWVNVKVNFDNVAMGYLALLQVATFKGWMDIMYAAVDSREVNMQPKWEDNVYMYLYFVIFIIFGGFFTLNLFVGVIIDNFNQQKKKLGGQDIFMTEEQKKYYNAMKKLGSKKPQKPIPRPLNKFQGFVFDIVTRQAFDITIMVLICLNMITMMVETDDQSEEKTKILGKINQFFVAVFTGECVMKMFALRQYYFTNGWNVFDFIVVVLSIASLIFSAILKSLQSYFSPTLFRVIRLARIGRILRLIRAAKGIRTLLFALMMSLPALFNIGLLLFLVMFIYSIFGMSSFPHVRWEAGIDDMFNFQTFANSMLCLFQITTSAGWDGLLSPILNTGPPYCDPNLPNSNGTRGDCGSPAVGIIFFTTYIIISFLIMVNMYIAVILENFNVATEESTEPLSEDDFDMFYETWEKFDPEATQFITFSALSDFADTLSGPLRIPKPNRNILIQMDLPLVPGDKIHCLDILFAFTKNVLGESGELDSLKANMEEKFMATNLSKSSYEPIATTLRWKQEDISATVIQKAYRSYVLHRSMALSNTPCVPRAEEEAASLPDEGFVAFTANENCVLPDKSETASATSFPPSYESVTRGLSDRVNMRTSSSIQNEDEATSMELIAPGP
Assay: Nav1.8 Qube automated patch-clamp assay
Type: cell-based
Settings: human Nav1.8 stably expressed in HEK 293 cells; whole-cell voltage clamp, room temperature; resting or inactivated state not specified; read-out: IC50 values (nM) for Examples in the Nav1.8 Qube Assay
Each entry below lists one item and its recorded IC50 value.
Provide only the numeric value, understood in nM.

>  <compound>
NS(=O)(=O)c1cc(NC(=O)c2cc(C(F)(F)F)cnc2N2CCC3C(C2)C3(F)F)ccn1 (single isomer, unassigned) [Example 69]

>  <value units>
nM

>  <IC50>
82

$$$$

# returns recorded IC50 (system: human Nav1.8 channels (Homo sapiens)) for Cc1ccc(C(=O)Nc2cncc(S(N)(=O)=O)c2)c(N2CCC(F)(F)CC2)n1 [Example 9] 816

# returns recorded IC50 (system: human Nav1.8 channels (Homo sapiens)) for CC1CN(c2ncc(C(F)(F)F)cc2C(=O)Nc2ccnc(C#N)c2)CCC1(F)F (single isomer, unassigned) [Example 155] 60

# returns recorded IC50 (system: human Nav1.8 channels (Homo sapiens)) for O=C(Nc1cncc(F)c1)c1cc(C(F)(F)F)cnc1N1CCCCCC1 [Example 186] 1290

# returns recorded IC50 (system: human Nav1.8 channels (Homo sapiens)) for NS(=O)(=O)c1cc(NC(=O)c2cc(C(F)(F)F)cnc2N2CCCC3(C2)CC3(F)F)ccn1 (single isomer, unassigned) [Example 67] 25

Values were extracted from patent US20210387966A1.
